- System: ACHN
- protocol.details: GI50, drug alone; higher = less potent
- test.parameters: treatment: drug alone; 5 days
Okay, here is how we bin by GI50, drug alone: bottom bin = under 400 nM, middle bin = from 400 nM up to 5000 nM, top bin = 5000 nM and over

Example entries and their recorded answers appear below.
> print(dat)
                                   compound  assigned.category
1  Nc1nccc(Oc2ccc(NC(=O)c3c[nH]cc(-c4ccc(F)cc4)c3=O)cc2F)c1Cl            top bin
2  CCCCOc1c(C(=O)c2c(F)cc(C)cc2F)cnc2[nH]ncc12         bottom bin
3  CC1CCN(C(=O)CC#N)C[C@@H]1N(C)c1ncnc2[nH]ccc12.O=C(O)CC(O)(CC(=O)O)C(=O)O (stereo in doubt)            top bin
4  N#CC[C@H](C1CCCC1)n1cc(-c2ncnc3[nH]ccc23)cn1            top bin
5  O=C1NC(=O)/C(=C/c2ccc3nccc(-c4ccncc4)c3c2)S1         middle bin

Query: Returns: class label. Input: `O=c1sn(-c2cccc3ccccc23)c(=O)n1Cc1ccccc1`
Reply: top bin

Query: Returns: class label. Input: `Cc1cnc(Nc2ccc(OCCN3CCCC3)cc2)nc1Nc1cccc(S(=O)(=O)NC(C)(C)C)c1`
Reply: middle bin

Query: Returns: class label. Input: `Nc1nc(N)c2nc(-c3cccc(O)c3)cnc2n1`
Reply: top bin

Query: Returns: class label. Input: `COc1cccc(-c2cc(=O)c3ccccc3o2)c1N`
Reply: top bin

Query: Returns: class label. Input: `Cn1cnc(-c2cc3nccc(Oc4ccc(NC(=S)NC(=O)Cc5ccccc5)cc4F)c3s2)c1`
Reply: top bin

Query: Returns: class label. Input: `O=c1cc(N2CCOCC2)oc2c(-c3cccc4c3sc3ccccc34)cccc12`
Reply: top bin

Query: Returns: class label. Input: COc1cc(Nc2c(C#N)cnc3cc(OCCCN4CCN(C)CC4)c(OC)cc23)c(Cl)cc1Cl [Bosutinib (SKI-606)]
Reply: middle bin

Query: Returns: class label. Input: O=C(O)c1ccc2c(c1)nc(Nc1cccc(Cl)c1)c1ccncc12 [cx-4945 (Silmitasertib)]
Reply: top bin

Query: Returns: class label. Input: Cc1ccc(Nc2nccc(N(C)c3ccc4c(C)n(C)nc4c3)n2)cc1S(N)(=O)=O.Cl [Pazopanib HCl]
Reply: top bin
